Tested on: VEGF promoter
Experiment: VEGF transcription-suppressing activity (VEGF promoter-PLAP reporter, U251/1-8 cells, hypoxia)
Type: cell-based
Conditions: Homo sapiens, U-251; U251/1-8 cells, hypoxic incubator 18 hours, PLAP activity; read-out: VEGF transcription-suppressing activities (IC50: nM)
readout: IC50 (nM)
State the answer as a number, implicitly in nM.

CCC(O)C(C)C1OC1CC(C)(O)/C=C/C=C(\C)C1OC(=O)CC(O)CCC(C)(O)C(OC(=O)N2CCN(C3CCCCCC3)CC2)/C=C/C1C (centres unmarked) ... 1.9

Now for the molecule whose IC50 we want.
Query: // IC50 lookup, key: CCOC1(C)CCC(O)CC(=O)OC(/C(C)=C/C=C/C(C)(O)CC2OC2C(C)C(O)CC)C(C)/C=C/C1OC(=O)N1CCN(C)CC1 (centres unmarked)
Reply: 2.4
